# Test system: Yap1 mRNA
# measurement-protocol: Antisense inhibition of human Yap1 in SNU-449 cells by modified oligonucleotides, single dose (Example 5, RTS36584)
# Type: cell-based
# test-context: Table 39; SNU-449 cells, 10,000 cells per well, free uptake, 2,000 nM oligonucleotide, approx. 48 hours; RTS36584; normalized to RIBOGREEN; Yap1 mRNA relative to untreated control
# Procedure: Modified oligonucleotides with additional chemistry modifications were designed to target a Yap1 nucleic acid and were tested for their effect on Yap1 mRNA level in SNU-449 cells. […] After a treatment period of approximately 48 hours, RNA was isolated from the cells and Yap1 mRNA levels were measured by quantitative real-time RTPCR. […] Yap1 mRNA levels were normalized to total RNA content, as measured by RIBOGREEN®. […]
Strand notation (5' to 3'): a small letter for the sugar, then the base; units joined by * are phosphorothioate-linked, units joined directly phosphodiester-linked; [ ] holds rarer units or linkages, { } end groups; capitals alone tell only the bases. e = 2'-O-(2-methoxyethyl) (MOE); k = constrained ethyl (cEt); [5mC] = 5-methylcytosine; d = 2'-deoxy (DNA)
YAP1 (% UTC) listing for selected substances.
property-name: YAP1 (% UTC)

1198408 (kG*dT*dG*d[5mC]*dT*dT*dT*dG*dG*dA*dA*kG*eA*kT*e[5mC]*kT; antisense) [Compound 1198408] | 41
1198371 (kA*dT*dT*dG*dT*d[5mC]*dT*d[5mC]*dA*dT*dG*k[5mC]*e[5mC]*kT*eT*kA; antisense) [Compound 1198371] | 15
1198406 (kG*d[5mC]*dT*dT*dT*dG*dG*dA*dA*dG*dA*kT*e[5mC]*kT*eG*kA; antisense) [Compound 1198406] | 17
1198401 (kT*dT*dA*dA*dG*d[5mC]*dA*d[5mC]*dT*dT*dT*kT*eA*k[5mC]*eA*kT; antisense) [Compound 1198401] | 63
1198413 (kT*dT*dT*dA*dG*dG*dA*dT*dG*d[5mC]*dA*kT*eG*kG*eT*kT) [Compound 1198413] | 29
1198402 (kG*dG*dA*dA*dG*dA*dT*d[5mC]*dT*dG*dA*kA*eA*k[5mC]*eT*k[5mC]; antisense) [Compound 1198402] | 32

---

# Tested on: Yap1 mRNA
# measurement-protocol: Antisense inhibition of human Yap1 in SNU-449 cells by modified oligonucleotides, single dose (Example 5, RTS36584)
# Format: cell-based
# test-context: Table 46; Yap1 mRNA as percent of untreated control, SNU-449 cells, single dose
Strand notation (5' to 3'): a small letter for the sugar, then the base; units joined by * are phosphorothioate-linked, units joined directly phosphodiester-linked; [ ] holds rarer units or linkages, { } end groups; capitals alone tell only the bases. e = 2'-O-(2-methoxyethyl) (MOE); k = constrained ethyl (cEt); [5mC] = 5-methylcytosine; d = 2'-deoxy (DNA)
Recorded YAP1 (% UT) determines the group label, using low bracket = under 30 % UT, middle bracket = from 30 % UT up to 40 % UT, high bracket = 40 % UT and over

1198856 (k[5mC]*kT*dT*dA*dT*dA*dT*dG*dG*dT*dT*kT*eT*kG*eT*kG; antisense) [Compound 1198856] | low bracket
1198815 (antisense kT*kA*dG*dA*dG*dT*dA*dT*dG*dT*dG*kG*e[5mC]*kA*eA*kT) [Compound 1198815] | low bracket
1198857 (kT*k[5mC]*dT*dT*dA*dT*dA*dT*dG*dG*dT*kT*eT*kT*eG*kT; antisense) [Compound 1198857] | low bracket
1198804 (antisense kT*kG*dT*d[5mC]*dT*d[5mC]*dA*dT*dG*d[5mC]*d[5mC]*kT*eT*kA*eT*kA) [Compound 1198804] | low bracket
1198846 (kT*kT*dA*dG*dG*dA*dT*dG*d[5mC]*dA*dT*kG*eG*kT*eT*kT; antisense) [Compound 1198846] | middle bracket
1198835 (kT*kT*dA*dA*dG*d[5mC]*dA*d[5mC]*dT*dT*dT*kT*eA*k[5mC]*eA*kT; antisense) [Compound 1198835] | high bracket
1198868 (kT*kG*dT*dA*dA*dT*dA*dT*dT*dG*d[5mC]*kA*eA*kT*e[5mC]*kT; antisense) [Compound 1198868] | high bracket
1198830 (kA*k[5mC]*dT*dT*dT*dT*dA*d[5mC]*dA*dT*dT*kA*eG*kG*eA*kA) [Compound 1198830] | middle bracket
1198886 (kA*k[5mC]*dT*dA*dA*dG*dT*dA*dA*dG*dG*kT*eT*kT*e[5mC]*k[5mC]; antisense) [Compound 1198886] | high bracket
1198812 (antisense kA*kT*dA*dT*dG*dG*dA*dA*dA*dT*dT*kG*eT*k[5mC]*eT*k[5mC]) [Compound 1198812] | low bracket
958499 (kA*kT*kT*dA*dG*dA*dG*dT*dA*dT*dG*dT*dG*kG*k[5mC]*kA) [Compound 958499] | low bracket
1198814 (antisense kA*kG*dA*dG*dT*dA*dT*dG*dT*dG*dG*k[5mC]*eA*kA*eT*kA) [Compound 1198814] | low bracket
1198844 (kA*kT*dA*dG*dT*dG*d[5mC]*dT*dT*dT*dG*kG*eA*kA*eG*kA; antisense) [Compound 1198844] | high bracket
1198840 (kG*k[5mC]*dT*dT*dT*dG*dG*dA*dA*dG*dA*kT*e[5mC]*kT*eG*kA; antisense) [Compound 1198840] | low bracket
1198819 (kA*kT*dA*dT*dT*dA*dG*dA*dG*dT*dA*kT*eG*kT*eG*kG; antisense) [Compound 1198819] | high bracket
1198843 (kA*kG*dT*dG*d[5mC]*dT*dT*dT*dG*dG*dA*kA*eG*kA*eT*k[5mC]; antisense) [Compound 1198843] | high bracket
1198811 (antisense kA*kT*dG*dG*dA*dA*dA*dT*dT*dG*dT*k[5mC]*eT*k[5mC]*eA*kT) [Compound 1198811] | middle bracket
1095426 (antisense k[5mC]*kT*dG*dA*dG*dG*dT*dA*dT*dA*dA*k[5mC]*eT*kG*eG*kG) [Compound 1095426] | high bracket
1198882 (kA*kG*dT*dA*dA*dG*dG*dT*dT*dT*d[5mC]*k[5mC]*e[5mC]*kA*eG*kA; antisense) [Compound 1198882] | high bracket
1198810 (antisense kT*kG*dG*dA*dA*dA*dT*dT*dG*dT*d[5mC]*kT*e[5mC]*kA*eT*kG) [Compound 1198810] | high bracket
1198805 (antisense kA*kT*dT*dG*dT*d[5mC]*dT*d[5mC]*dA*dT*dG*k[5mC]*e[5mC]*kT*eT*kA) [Compound 1198805] | low bracket
1198839 (k[5mC]*kT*dT*dT*dG*dG*dA*dA*dG*dA*dT*k[5mC]*eT*kG*eA*kA; antisense) [Compound 1198839] | middle bracket
1198824 (kA*kG*dG*dT*dA*dT*dA*dA*d[5mC]*dT*dG*kG*eG*k[5mC]*eA*kA; antisense) [Compound 1198824] | high bracket
